system: Staphylococcus aureus; assay: Antibacterial activity against Staphylococcus aureus ACH-0129 isolate with gyrA Ser84Leu, Glu88Val and grlA Ser80Phe, Ala116Val mutant after 24 hrs by broth microdilution method; format: functional
Each item that follows carries a reported MIC.
Give a bare numeral; the unit µg/mL is implied.

Solved cases (5 shown):
[[record]]
molecule = "CO/N=C1\\CN(c2nc3c(cc2F)c(=O)c(C(=O)O)cn3C2CC2)CC1CN (stereo unspecified)"
attribute_measured = "MIC"
measurement_unit = "µg/mL"
test_result = 8

[[record]]
molecule = "COc1c(-c2ccnc(C)c2)c(F)cc2c(=O)c3c(=O)[nH]sc3n(C3CC3)c12"
attribute_measured = "MIC"
measurement_unit = "µg/mL"
test_result = 0.5

[[record]]
molecule = "COc1c(-c2cc(C)nc(C)c2)c(F)cc2c(=O)c3c(=O)[nH]sc3n(C3CC3)c12"
attribute_measured = "MIC"
measurement_unit = "µg/mL"
test_result = 0.5

[[record]]
molecule = "CC[n+]1c(-c2ccccc2)c2cc(N)ccc2c2ccc(N)cc21.[Br-] [HOMIDIUM BROMIDE]"
attribute_measured = "MIC"
measurement_unit = "µg/mL"
test_result = 4

[[record]]
molecule = "Cc1cc(-c2cc3c(cc2F)c(=O)c2c(=O)[nH]sc2n3C2CC2)ccn1"
attribute_measured = "MIC"
measurement_unit = "µg/mL"
test_result = 4


Entry COc1c(N2C[C@@H]3CCCN[C@@H]3C2)c(F)cc2c(=O)c(C(=O)O)cn(C3CC3)c12 has what MIC? 8

* * *

Each item that follows carries a reported MIC.
tested on: Staphylococcus aureus; test: Antibacterial activity against Staphylococcus aureus ACH-0221 isolate with gyrA Ser84Leu mutant after 24 hrs by broth microdilution method; format: functional
Give a bare numeral; the unit µg/mL is implied.

Entry CO/N=C1\CN(c2nc3c(cc2F)c(=O)c(C(=O)O)cn3C2CC2)CC1CN (centres undefined) [GEMIFLOXACIN] has what MIC? 0.5

Entry COc1c(N2C[C@@H]3CCCN[C@@H]3C2)c(F)cc2c(=O)c(C(=O)O)cn(C3CC3)c12 [MOXIFLOXACIN] has what MIC? 0.5

Entry Cc1cc(-c2cc3c(cc2F)c(=O)c2c(=O)[nH]sc2n3C2CC2)ccn1 has what MIC? 0.03

Entry COc1c(-c2ccnc(C)c2)c(F)cc2c(=O)c3c(=O)[nH]sc3n(C3CC3)c12 has what MIC? 0.03

* * *

test system: Staphylococcus aureus; assay: Antibacterial activity against Staphylococcus aureus ACH-0221 isolate with gyrA Ser84Leu mutant after 24 hrs by broth microdilution method; assay type: functional
Attribute measured: MIC

Entry O=C(O)c1cn(C2CC2)c2cc(N3CCNCC3)c(F)cc2c1=O has what MIC? 1 µg/mL

Entry CC[n+]1c(-c2ccccc2)c2cc(N)ccc2c2ccc(N)cc21.[Br-] [HOMIDIUM BROMIDE] has what MIC? 16 µg/mL

Entry COc1c(-c2cc(C)nc(C)c2)c(F)cc2c(=O)c3c(=O)[nH]sc3n(C3CC3)c12 has what MIC? 0.03 µg/mL

* * *

system: Staphylococcus aureus; assay: Antibacterial activity against Staphylococcus aureus ACH-0201 isolate with gyrA Ser84Leu, Glu88Val and grlA Ser80Phe, Ala116Val mutant after 24 hrs by broth microdilution method; format: functional
Attribute measured: MIC

Solved cases (4 shown):
[[record]]
compound = "COc1c(-c2cc(C)nc(C)c2)c(F)cc2c(=O)c3c(=O)[nH]sc3n(C3CC3)c12"
target_desc = "Staphylococcus aureus"
test_result = "1 µg/mL"

[[record]]
compound = "CC[n+]1c(-c2ccccc2)c2cc(N)ccc2c2ccc(N)cc21.[Br-] [HOMIDIUM BROMIDE]"
target_desc = "Staphylococcus aureus"
test_result = "2 µg/mL"

[[record]]
compound = "CO/N=C1\\CN(c2nc3c(cc2F)c(=O)c(C(=O)O)cn3C2CC2)CC1CN (stereo unspecified)"
target_desc = "Staphylococcus aureus"
test_result = "8 µg/mL"

[[record]]
compound = "COc1c(N2C[C@@H]3CCCN[C@@H]3C2)c(F)cc2c(=O)c(C(=O)O)cn(C3CC3)c12"
target_desc = "Staphylococcus aureus"
test_result = "16 µg/mL"


Entry Cc1cc(-c2cc3c(cc2F)c(=O)c2c(=O)[nH]sc2n3C2CC2)ccn1 has what MIC? 8 µg/mL

Entry COc1c(-c2ccnc(C)c2)c(F)cc2c(=O)c3c(=O)[nH]sc3n(C3CC3)c12 has what MIC? 2 µg/mL

* * *

Each item that follows carries a reported pIC50.
test: Inhibition of Staphylococcus aureus […] topoisomerase 4 grlA S80F mutant decatenation activity assessed as unlinking of DNA microcircles from kinetoplast DNA
Bear in mind: pIC50 is minus log10 of a mol/L concentration; give just that figure.

Solved cases (3 shown):
[[record]]
compound = "COc1c(N2C[C@@H]3CCCN[C@@H]3C2)c(F)cc2c(=O)c(C(=O)O)cn(C3CC3)c12"
attribute_measured = "pIC50"
test_result = 4.92

[[record]]
compound = "COc1c(-c2ccnc(C)c2)c(F)cc2c(=O)c3c(=O)[nH]sc3n(C3CC3)c12"
attribute_measured = "pIC50"
test_result = 4.80

[[record]]
compound = "COc1c(-c2cc(C)nc(C)c2)c(F)cc2c(=O)c3c(=O)[nH]sc3n(C3CC3)c12"
attribute_measured = "pIC50"
test_result = 5.03


Kindly consider the entry below.
Entry CO/N=C1\CN(c2nc3c(cc2F)c(=O)c(C(=O)O)cn3C2CC2)CC1CN (stereo not given) has what pIC50? 5.01

* * *

Each item that follows carries a reported MIC.
tested on: Staphylococcus aureus; experiment: Antibacterial activity against Staphylococcus aureus ATCC 700699 isolate with gyrA Ser84Leu, Glu409Lys and grlA Ser80Phe mutant after 24 hrs by broth microdilution method; type: functional; details: ATCC 700699, 24 h

Solved cases (5 shown):
[[record]]
molecule = "COc1c(-c2ccnc(C)c2)c(F)cc2c(=O)c3c(=O)[nH]sc3n(C3CC3)c12"
target_desc = "Staphylococcus aureus"
test_result = "0.25 µg/mL"

[[record]]
molecule = "Cc1cc(-c2cc3c(cc2F)c(=O)c2c(=O)[nH]sc2n3C2CC2)ccn1"
target_desc = "Staphylococcus aureus"
test_result = "0.25 µg/mL"

[[record]]
molecule = "CO/N=C1\\CN(c2nc3c(cc2F)c(=O)c(C(=O)O)cn3C2CC2)CC1CN (stereo unspecified) [GEMIFLOXACIN]"
target_desc = "Staphylococcus aureus"
test_result = "4 µg/mL"

[[record]]
molecule = "CC[n+]1c(-c2ccccc2)c2cc(N)ccc2c2ccc(N)cc21.[Br-] [HOMIDIUM BROMIDE]"
target_desc = "Staphylococcus aureus"
test_result = "> 64 µg/mL"

[[record]]
molecule = "COc1c(N2C[C@@H]3CCCN[C@@H]3C2)c(F)cc2c(=O)c(C(=O)O)cn(C3CC3)c12 [MOXIFLOXACIN]"
target_desc = "Staphylococcus aureus"
test_result = "4 µg/mL"


Kindly consider the entry below.
Entry COc1c(-c2cc(C)nc(C)c2)c(F)cc2c(=O)c3c(=O)[nH]sc3n(C3CC3)c12 has what MIC? 0.125 µg/mL

* * *

system: Staphylococcus aureus; test: Antibacterial activity against Staphylococcus aureus ACH-0203 isolate with gyrA Ser84Leu and grlA Ser80Phe, Ala116Val mutant after 24 hrs by broth microdilution method; type: functional
Each item that follows carries a reported MIC.

Solved cases (6 shown):
[[record]]
compound = "O=C(O)c1cn(C2CC2)c2cc(N3CCNCC3)c(F)cc2c1=O"
test_result = "128 µg/mL"

[[record]]
compound = "COc1c(-c2cc(C)nc(C)c2)c(F)cc2c(=O)c3c(=O)[nH]sc3n(C3CC3)c12"
test_result = "1 µg/mL"

[[record]]
compound = "CC[n+]1c(-c2ccccc2)c2cc(N)ccc2c2ccc(N)cc21.[Br-] [HOMIDIUM BROMIDE]"
test_result = "32 µg/mL"

[[record]]
compound = "Cc1cc(-c2cc3c(cc2F)c(=O)c2c(=O)[nH]sc2n3C2CC2)ccn1"
test_result = "2 µg/mL"

[[record]]
compound = "CO/N=C1\\CN(c2nc3c(cc2F)c(=O)c(C(=O)O)cn3C2CC2)CC1CN (configuration not stated)"
test_result = "32 µg/mL"

[[record]]
compound = "COc1c(N2C[C@@H]3CCCN[C@@H]3C2)c(F)cc2c(=O)c(C(=O)O)cn(C3CC3)c12"
test_result = "32 µg/mL"


Entry COc1c(-c2ccnc(C)c2)c(F)cc2c(=O)c3c(=O)[nH]sc3n(C3CC3)c12 has what MIC? 1 µg/mL

* * *

Each item that follows carries a reported MIC.
test system: Staphylococcus aureus; assay: Antibacterial activity against Staphylococcus aureus ATCC 29213 after 24 hrs by broth microdilution method; type: functional; settings: ATCC 29213, 24 h
Give a bare numeral; the unit µg/mL is implied.

Solved cases (5 shown):
[[record]]
molecule = "O=C(O)c1cn(C2CC2)c2cc(N3CCNCC3)c(F)cc2c1=O"
test_result = 0.25

[[record]]
molecule = "Cc1cc(-c2cc3c(cc2F)c(=O)c2c(=O)[nH]sc2n3C2CC2)ccn1"
test_result = 0.008

[[record]]
molecule = "CO/N=C1\\CN(c2nc3c(cc2F)c(=O)c(C(=O)O)cn3C2CC2)CC1CN (configuration not stated)"
test_result = 0.03

[[record]]
molecule = "COc1c(N2C[C@@H]3CCCN[C@@H]3C2)c(F)cc2c(=O)c(C(=O)O)cn(C3CC3)c12"
test_result = 0.06

[[record]]
molecule = "COc1c(-c2ccnc(C)c2)c(F)cc2c(=O)c3c(=O)[nH]sc3n(C3CC3)c12"
test_result = 0.004


Entry CC[n+]1c(-c2ccccc2)c2cc(N)ccc2c2ccc(N)cc21.[Br-] [HOMIDIUM BROMIDE] has what MIC? 4

Entry COc1c(-c2cc(C)nc(C)c2)c(F)cc2c(=O)c3c(=O)[nH]sc3n(C3CC3)c12 has what MIC? 0.004
